Tested on: crabgrass, large (large crabgrass, Digitaria sanguinalis)
experiment: Test A pre-/postemergence: crabgrass, large
Assay type: in vivo
assay-context: Postemergence, 500 g ai/ha; visual rating on 0 to 100 scale (0 no effect, 100 complete control), approximately ten days
Lab note: compare Crabgrass, Large plant response rating against 60. Equal or greater, write 1 (yes). Smaller, write 0 (no).

Example results:
* Cc1nn(-c2ccc(F)cc2)nc1Cc1cccc(C(F)(F)F)c1 | 1 (yes)
* Cc1nn(-c2ccc(Br)cc2)nc1Oc1ccnc(C(F)(F)F)c1 | 1 (yes)
* COc1nn(-c2ccc(C(F)(F)F)cc2)nc1Cn1nc(C(F)(F)F)cc1C(F)(F)F | 0 (no)
* Cc1nn(-c2ccccn2)nc1C(=O)c1cccc(C(F)(F)F)c1 | 0 (no)

input: Hello, I need to know if Cc1nn(-c2ccc(C(F)(F)F)cc2)nc1Oc1ccnc(C(F)(F)F)c1 has measured Crabgrass, Large plant response rating not below 60. Thanks!
output: 1 (yes)

input: Exam item: decide whether the reported Crabgrass, Large plant response rating for Cc1nn(-c2ccc(C(F)(F)F)cc2)nc1Oc1cncc(C(F)(F)F)c1 is at least 60.
output: 1 (yes)

input: Confirm if Crabgrass, Large plant response rating reported for the compound Cc1nn(-c2ccc(Cl)nc2)nc1C(=O)c1cccc(C(F)(F)F)c1 is 60 or above.
output: 0 (no)

input: Given the entry CCc1nn(-c2ccc(F)cc2)nc1Cc1ccnc(C(F)(F)F)c1 , answer whether its Crabgrass, Large plant response rating meets or surpasses 60.
output: 1 (yes)

====

System: wheat (Triticum aestivum)
experiment: Test A pre-/postemergence: wheat
Format: in vivo
assay-context: Preemergence, 500 g ai/ha; 0 to 100 scale (0 no effect, 100 complete control)
Plant response rating, Wheat for assorted compounds
Answer field: number only, no words.

Completed entries (count: 6):
- CCOc1nn(-c2ccc(F)cc2F)nc1Cc1ccnc(C(F)(F)F)c1: 80
- Oc1nn(-c2ccc(C(F)(F)F)cc2)nc1Cc1ccnc(C(F)(F)F)c1: 0
- CCCc1nn(-c2ccc(C(F)(F)F)cc2)nc1Oc1ccnc(C(F)(F)F)c1: 80
- CC(C)(C)c1nn(-c2ccc(F)cc2)nc1Cc1ccnc(C(F)(F)F)c1: 0
- CC(C)Oc1nn(-c2ccc(C(F)(F)F)cc2)nc1Cc1ccnc(C(F)(F)F)c1: 0
- Cc1nn(-c2ccc(F)c(C(F)(F)F)c2)nc1Cc1ccnc(C(F)(F)F)c1: 80

input: Find the recorded Plant response rating, Wheat belonging to Cc1nn(-c2ccc(F)cc2)nc1Oc1cc(C(F)(F)F)nn1C and report it.
output: 0

input: Find the recorded Plant response rating, Wheat belonging to CCc1nn(-c2ccc(F)cc2)nc1Cc1ccnc(C(F)(F)F)c1 and report it.
output: 20

input: Name the reported Plant response rating, Wheat value associated with the compound CCOc1nn(-c2ccc(Cl)cc2)nc1Cc1ccnc(C(F)(F)F)c1
output: 50

====

Tested on: pigweed (Amaranthus retroflexus)
experiment: Test C pre-/postemergence: pigweed
Format: in vivo
assay-context: Postemergence, 62 g ai/ha; scale 0 to 100 (0 no effect, 100 complete control)
Attribute: Plant response rating, Pigweed
A bare number is all that is needed in reply.

Examples from the recorded data:
• CCc1nn(-c2ccc(C(F)(F)F)cc2)nc1Cc1ccnc(C(F)(F)F)c1 = 90
• CCc1nn(-c2ccc(C(F)(F)F)cc2)nc1Oc1ccnc(C(F)(F)F)c1 = 95
• CCOc1nn(-c2ccc(C(F)(F)F)cc2)nc1Cc1ccnc(C(F)(F)F)c1 = 75
• Fc1ccc(-n2nc(Cc3ccnc(C(F)(F)F)c3)c(OC(F)F)n2)cc1 = 95
• Cc1nn(-c2ccc(F)c(C(F)(F)F)c2)nc1Cc1ccnc(C(F)(F)F)c1 = 90

input: Consider the compound shown here: Cc1nn(-c2ccc(C(F)(F)F)cn2)nc1Cc1cccc(C(F)(F)F)c1 What is its recorded Plant response rating, Pigweed?
output: 98

input: What value of Plant response rating, Pigweed has been recorded for this entry: CCOc1nn(-c2ccc(Cl)cc2)nc1Cc1ccnc(C(F)(F)F)c1
output: 95

input: Fill in the blank: the reported Plant response rating, Pigweed of FC(F)Oc1nn(-c2ccc(C(F)(F)F)cc2)nc1Cc1ccnc(C(F)(F)F)c1 is ____.
output: 60

input: Entry COc1nn(-c2cccc(F)c2)nc1Cc1ccnc(C(F)(F)F)c1 : reported Plant response rating, Pigweed = ?
output: 98

input: Can you share its Plant response rating, Pigweed? I mean this compound: CCOc1nn(-c2ccc(F)cc2)nc1Cc1ccnc(C(F)(F)F)c1
output: 98
